- System: rat livers
- RUN_CONDITIONS: male
For each entry below, report its Zone 3 Necrosis in vivo: Pathology Present value.
Quick reminder: number only, in d, skip the unit.

Enquiry: Item "c1ccncc1" has what recorded Zone 3 Necrosis in vivo: Pathology Present?
Return: 14

Enquiry: Could you tell me which Zone 3 Necrosis in vivo: Pathology Present is on file for "Brc1cccc(Br)c1" ?
Return: 1

---

- Test system: Rat primary hepatocytes
- RUN_CONDITIONS: rat primary hepatocytes, 1000 microM

| COMPOUND | ASSAY_SYSTEM | Zone 3 Necrosis Pathology |
| --- | --- | --- |
| CCC1(C)CC(=O)NC1=O (stereo not shown) [Ethosuximide] | Rat primary hepatocytes | Absent |
| O=NN(CCO)CCO | Rat primary hepatocytes | Absent |
| CCSCC[C@H](N)C(=O)O | Rat primary hepatocytes | Present |
| CN(C)N=O | Rat primary hepatocytes | Present |
